So I've got a bunch of variants here, and I need their protein stability index values.
B1: IQUB (parent)
chain: KIREKEEWIKLDYHRRHNPKTNED

Variants of: B1
assay-info: protein stability index of a GFP-peptide fusion (GPS, HEK-293T) (PSI 1-6); higher = more stable;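 also: lentivirally expressed fusions sorted by FACS into six bins by GFP to DsRed ratio, PSI derived from sequencing read proportions per bin multiplied by bin number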
condition: c terminus: a fixed tail appended
Give bare numbers.

See these solved cases before continuing.
Which protein stability index is listed for KIREKEEWIKLDYHRQHNPKTNED [R16Q] ? 5.08

Which protein stability index reading was recorded for the variant KIREKEEWIKLDYHRTHNPKTNED [R16T] ? 4.94

Would you kindly share the measured protein stability index for KIRELEEWIKLDYHRRHNPKTNED [K5L] ? 3.13

Any idea what its protein stability index is? The variant is PIREKEEWIKLDYHRRHNPKTNED [K1P] 4.99

Can you look up the measured protein stability index of KIRSKEEWIKLDYHRRHNPKTNED [E4S] for me? 3.95

# get_value(readout='protein stability index', item= KIREKEEWIKLDYHRRHLPKTNED [N18L] ) 3.79

Fill in the blank: the reported protein stability index of KIREKEEWIKLDYHRRHNPKDNED [T21D] is ____. 4.79

Tell me the measured protein stability index of KIREKEEWIKLEYHRRHNPKTNED [D12E] , please. 4.27

Could you report protein stability index for every entry in the following list?
1. KLREKEEWIKLDYHRRHNPKTNED [I2L]
2. KIREKEEWIKLDYHRCHNPKTNED [R16C]
3. KIREKEEWIKHDYHRRHNPKTNED [L11H]
4. KIDEKEEWIKLDYHRRHNPKTNED [R3D]
5. KIREKEEWIKLDYHYRHNPKTNED [R15Y]
6. KIREKEEWIYLDYHRRHNPKTNED [K10Y]
7. KIRTKEEWIKLDYHRRHNPKTNED [E4T]

4.74
4.52
4.66
5.34
4.08
4.31
4

For every listed record, write down its protein stability index.
1. KIREKEEWIKLHYHRRHNPKTNED [D12H]
2. KIREKEEWIKLDYHRRHPPKTNED [N18P]
3. KIREKEEWIKLDYHRRMNPKTNED [H17M]

[4.41, 4.89, 4.21]

Recorded values, source the supplement of paper PMC10567573.
